test: qHTS for Inhibitors of TGF-b; conditions: HepG2 CAGA-GFP TGF-b/SMAD3 reporter, GFP fluorescence, 18 h, TGF-beta stimulated, 500 pg/mL final; series mostly up to 46.1 µM; further: nearly all actives have a fitted effect of over 65% in size
Among all 410,000 compounds or so, about 5,000 (1.2%) were called active. Not shown: some 13% with an inconclusive outcome. The call rests on the fitted dose curve; in most records, active means well fitted inhibition curve with a large enough effect; inconclusive means small, poorly fitted or top-dose-only effect; inactive means no such curve, though single readings can be large or run the other way. Only a selection was taken, and actives are over-represented in it overall.
Pick one and only one: YES = active, NO = inactive

Sample answers from the record:
[
  {
    "compound": "Cc1ccc(-c2cccc([C@H]3[C@@H]4C=CC[C@@H](C)[C@@H]4C(=O)N3Cc3ccccc3)c2)cc1",
    "classLabel": "YES"
  },
  {
    "compound": "CC1=C(c2ccc(C)cc2)S(=O)(=O)NC1=NCCCN1CCN(c2cc(C)ccc2C)CC1",
    "classLabel": "YES"
  },
  {
    "compound": "Cc1ccc(S(=O)(=O)n2nc(-c3ccc(Cl)cc3)nc2NCc2ccccc2)cc1",
    "classLabel": "NO"
  },
  {
    "compound": "CC(=O)c1ccc(NC(c2ccc(F)cc2)c2nnc(-c3ccccc3)o2)cc1 (stereo not given)",
    "classLabel": "NO"
  }
]

Query: recorded result category for `Clc1cccc(Cc2c(-c3cccc(Cl)c3)nc3ccc(Cl)cn23)c1` in this test
YES

Query: recorded result category for `CCOC(=O)c1c(C)[nH]c(CCC(=O)NCCCN2CCN(c3cc(C)ccc3C)CC2)c1C` in this test
NO

Query: recorded result category for `Brc1ccc2nc(-c3ccccc3)c(Cc3ccccc3)n2c1` in this test
YES

Query: recorded result category for `COC(=O)c1ccc2nc(-c3ccc(Cl)cc3)c(Cc3cccc(F)c3)n2c1` in this test
NO

Query: recorded result category for `O=C(c1cnn2c1NC(=C1CC1)C=C2C(F)F)N1CCc2ccccc2C1` in this test
NO

Query: recorded result category for `Cc1ccc(S(=O)(=O)N2CCN(c3nc(-n4cnc5ccccc54)nc4ccccc34)CC2)cc1` in this test
NO

Query: recorded result category for `Cc1cc(Br)cn2c(Cc3ccccc3C(F)(F)F)c(C3CCCCC3)nc12` in this test
NO
